assayOverview: logD by shake flask method (octanol/PBS pH 7.4)
Assay type: physicochemical
readoutKind: logD
Give a plain numeric answer without units written out.

Incoming: Please supply the value of reported logD for the item CCC(CC)CNC(=O)Cn1cccc(NC(=O)[C@H](CC/C=C/C(=O)OC)NC(=O)c2cncn2C)c1=O
Outgoing: 2

---

targetOfAssay: hTG3 (Homo sapiens)
Sequence (Q08188 2-467 limits assumed): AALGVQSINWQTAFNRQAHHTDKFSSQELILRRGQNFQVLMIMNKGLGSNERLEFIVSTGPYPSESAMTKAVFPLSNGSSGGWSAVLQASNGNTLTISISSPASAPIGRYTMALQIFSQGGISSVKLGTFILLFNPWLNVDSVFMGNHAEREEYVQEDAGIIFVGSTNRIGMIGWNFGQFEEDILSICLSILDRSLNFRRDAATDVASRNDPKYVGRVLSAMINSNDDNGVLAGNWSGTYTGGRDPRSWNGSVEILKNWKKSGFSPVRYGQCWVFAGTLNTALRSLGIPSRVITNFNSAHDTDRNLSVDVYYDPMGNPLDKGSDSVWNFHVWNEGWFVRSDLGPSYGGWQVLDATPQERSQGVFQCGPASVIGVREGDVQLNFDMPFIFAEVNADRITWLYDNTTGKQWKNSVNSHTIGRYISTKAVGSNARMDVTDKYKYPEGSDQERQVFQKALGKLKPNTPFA
Sequence (Q08188 468-693 partner limits assumed): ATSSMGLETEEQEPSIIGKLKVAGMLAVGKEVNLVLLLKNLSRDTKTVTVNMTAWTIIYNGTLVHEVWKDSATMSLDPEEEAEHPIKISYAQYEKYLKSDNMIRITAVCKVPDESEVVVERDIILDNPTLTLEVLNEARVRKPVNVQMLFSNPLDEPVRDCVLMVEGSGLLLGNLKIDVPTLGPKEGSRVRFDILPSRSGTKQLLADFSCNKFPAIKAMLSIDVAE
assayOverview: Fluorescent transamidation assay (DCC-assay), hTG3
testConditions: recombinant, activated hTG3a, transamidation assay; read-out: App. IC50 hTG3
pIC50: −log10 of the molar value.
readoutKind: pIC50

Incoming: Please tell me the measured pIC50 for CCC(CC)CNC(=O)Cn1cccc(NC(=O)[C@H](CC/C=C/C(=O)OC)NC(=O)c2cncn2C)c1=O ; system: hTG3 (Homo sapiens).
Outgoing: < 4.30

---

targetOfAssay: hTG1 (Homo sapiens)
Sequence (P22735 whole entry): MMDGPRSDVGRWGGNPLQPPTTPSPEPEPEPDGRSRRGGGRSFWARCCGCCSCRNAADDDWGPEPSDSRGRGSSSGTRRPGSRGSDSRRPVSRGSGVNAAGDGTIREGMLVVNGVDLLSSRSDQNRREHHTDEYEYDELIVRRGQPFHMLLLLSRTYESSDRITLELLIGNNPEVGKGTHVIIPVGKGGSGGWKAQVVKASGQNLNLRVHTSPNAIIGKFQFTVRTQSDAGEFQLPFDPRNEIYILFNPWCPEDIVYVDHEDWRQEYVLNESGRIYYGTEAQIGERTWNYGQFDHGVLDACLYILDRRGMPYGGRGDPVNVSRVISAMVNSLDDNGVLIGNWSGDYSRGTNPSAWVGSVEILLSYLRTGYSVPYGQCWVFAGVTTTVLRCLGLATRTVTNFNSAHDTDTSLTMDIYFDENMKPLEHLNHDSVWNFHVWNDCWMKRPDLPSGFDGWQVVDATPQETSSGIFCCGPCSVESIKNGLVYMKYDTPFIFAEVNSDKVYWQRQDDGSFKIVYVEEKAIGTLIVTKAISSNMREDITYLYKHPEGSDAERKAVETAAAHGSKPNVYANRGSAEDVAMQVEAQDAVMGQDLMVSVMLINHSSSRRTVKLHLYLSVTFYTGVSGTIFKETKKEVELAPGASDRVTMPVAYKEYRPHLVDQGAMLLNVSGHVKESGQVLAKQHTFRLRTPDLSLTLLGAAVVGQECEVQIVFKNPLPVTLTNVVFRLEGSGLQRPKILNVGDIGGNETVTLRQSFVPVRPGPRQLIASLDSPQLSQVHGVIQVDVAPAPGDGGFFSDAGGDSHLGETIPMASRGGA
assayOverview: Fluorescent transamidation assay (DCC-assay), hTG1
testConditions: recombinant, transamidation assay; read-out: App. IC50 hTG1
readoutKind: IC50 (µM)
Give your result in µM as a bare value.

Incoming: Please supply the value of reported IC50 for the item CCC(CC)CNC(=O)Cn1cccc(NC(=O)[C@H](CC/C=C/C(=O)OC)NC(=O)c2cncn2C)c1=O [ZED1227]
Outgoing: 24.9

---

targetOfAssay: UniProtKB P21980
Sequence (P21980 whole entry): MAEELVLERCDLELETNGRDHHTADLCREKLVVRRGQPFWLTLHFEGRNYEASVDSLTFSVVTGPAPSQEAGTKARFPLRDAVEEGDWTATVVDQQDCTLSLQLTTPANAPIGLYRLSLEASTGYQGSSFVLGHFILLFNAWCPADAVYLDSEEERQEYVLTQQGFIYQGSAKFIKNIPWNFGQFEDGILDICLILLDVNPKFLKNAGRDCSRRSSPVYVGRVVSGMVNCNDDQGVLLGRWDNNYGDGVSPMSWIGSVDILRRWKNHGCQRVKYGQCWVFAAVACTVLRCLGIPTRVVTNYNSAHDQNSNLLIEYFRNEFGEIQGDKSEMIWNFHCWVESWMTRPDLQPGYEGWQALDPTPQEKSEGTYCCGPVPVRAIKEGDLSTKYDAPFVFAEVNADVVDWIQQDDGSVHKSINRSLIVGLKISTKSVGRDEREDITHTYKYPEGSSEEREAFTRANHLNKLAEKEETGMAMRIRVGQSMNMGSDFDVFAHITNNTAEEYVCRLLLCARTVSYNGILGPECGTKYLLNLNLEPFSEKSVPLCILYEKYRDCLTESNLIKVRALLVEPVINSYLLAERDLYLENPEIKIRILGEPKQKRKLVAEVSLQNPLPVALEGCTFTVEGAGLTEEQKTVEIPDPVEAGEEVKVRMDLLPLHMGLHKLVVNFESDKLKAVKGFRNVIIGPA
assayOverview: Fluorescent transamidation assay (DCC-assay), hTG2
testConditions: recombinant human TG2, transamidation assay, apparent IC50 of irreversible inhibitor; read-out: App. IC50 hTG2
Square brackets hold non-standard residues; d marks the D form. Peptide text beside a SMILES is read from it. * marks the point of attachment. Nle(5E-ene,6-CO2Et) = CCOC(=O)/C=C/CC[C@H](N)C(=O)O; DON = [N-]=[N+]=CC(=O)CC[C@H](N)C(=O)O; Cbz = O=C(OCc1ccccc1)*
readoutKind: IC50 (nM)
Give your result in nM as a bare value.

Incoming: Please tell me the measured IC50 for COC(=O)[C@H](CC(C)C)NC(=O)[C@@H]1CCCN1C(=O)[C@@H](NC(=O)[C@H](CCC(=O)C=[N+]=[N-])NC(=O)OCc1ccccc1)C(C)C [Z006, Z-DON-Val-Pro-Leu-OMe] (Cbz-[DON]VPL-OMe) ; system: UniProtKB P21980.
Outgoing: 70

Incoming: Please tell me the measured IC50 for CCOC(=O)/C=C/CC[C@H](NC(=O)OCc1ccccc1)C(=O)N[C@@H](CCC(N)=O)C(=O)N1CCC[C@H]1C(=O)N[C@@H](CC(C)C)C(=O)OC [ZED754] (Cbz-[Nle(5E-ene,6-CO2Et)]QPL-OMe) ; system: UniProtKB P21980.
Outgoing: 182

Incoming: Please tell me the measured IC50 for CCC(CC)CNC(=O)Cn1cccc(NC(=O)[C@H](CC/C=C/C(=O)OC)NC(=O)c2cncn2C)c1=O [ZED1227] ; system: UniProtKB P21980.
Outgoing: 53

Incoming: Please tell me the measured IC50 for CC(=O)CSc1n(C)c(C)c(C)[n+]1C.[Cl-] [T101] ; system: UniProtKB P21980.
Outgoing: 1780

---

targetOfAssay: hTG6 (Homo sapiens, UniProt O95932)
Sequence (O95932 whole entry): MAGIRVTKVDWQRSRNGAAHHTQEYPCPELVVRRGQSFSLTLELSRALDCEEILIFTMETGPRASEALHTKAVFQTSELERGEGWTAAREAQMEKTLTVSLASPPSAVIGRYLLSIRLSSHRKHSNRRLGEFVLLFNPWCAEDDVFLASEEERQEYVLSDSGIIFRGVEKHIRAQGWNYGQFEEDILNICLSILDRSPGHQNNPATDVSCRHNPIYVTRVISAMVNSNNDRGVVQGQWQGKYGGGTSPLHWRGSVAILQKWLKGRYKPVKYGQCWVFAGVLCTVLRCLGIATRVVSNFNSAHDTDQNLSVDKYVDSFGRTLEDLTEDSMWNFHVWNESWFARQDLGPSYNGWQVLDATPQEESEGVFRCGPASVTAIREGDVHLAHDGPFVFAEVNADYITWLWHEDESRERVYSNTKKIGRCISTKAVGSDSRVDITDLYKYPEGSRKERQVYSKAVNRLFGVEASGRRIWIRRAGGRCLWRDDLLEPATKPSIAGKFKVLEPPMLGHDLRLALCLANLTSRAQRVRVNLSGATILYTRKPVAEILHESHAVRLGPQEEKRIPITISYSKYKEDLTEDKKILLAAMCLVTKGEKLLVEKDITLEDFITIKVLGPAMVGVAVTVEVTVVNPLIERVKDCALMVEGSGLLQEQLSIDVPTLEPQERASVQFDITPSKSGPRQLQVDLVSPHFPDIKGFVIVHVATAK
assayOverview: Fluorescent transamidation assay (DCC-assay), hTG6
testConditions: recombinant, transamidation assay; read-out: App. IC50 hTG6
readoutKind: IC50 (µM)
Give your result in µM as a bare value.

Incoming: Please supply the value of reported IC50 for the item CCC(CC)CNC(=O)Cn1cccc(NC(=O)[C@H](CC/C=C/C(=O)OC)NC(=O)c2cncn2C)c1=O
Outgoing: 6.44
